assayed-target: T1, human Ror2 (human, UniProt Q01974 34-403, limits assumed)
T1 construct: also called hROR2; receptor tyrosine kinase-like orphan receptor 2
T1 sequence (Q01974 34-403 limits assumed): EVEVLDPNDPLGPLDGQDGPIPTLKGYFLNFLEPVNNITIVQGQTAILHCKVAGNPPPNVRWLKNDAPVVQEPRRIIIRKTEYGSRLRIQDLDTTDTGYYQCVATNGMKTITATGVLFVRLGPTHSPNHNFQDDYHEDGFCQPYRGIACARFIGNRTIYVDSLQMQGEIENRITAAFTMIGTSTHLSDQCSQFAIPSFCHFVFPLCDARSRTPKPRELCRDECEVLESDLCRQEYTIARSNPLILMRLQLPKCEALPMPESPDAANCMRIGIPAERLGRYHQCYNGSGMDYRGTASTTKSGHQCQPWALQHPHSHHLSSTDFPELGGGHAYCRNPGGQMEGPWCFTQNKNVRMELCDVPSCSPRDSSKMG
protocol: ELISA, human Ror2, pH 6.0; note: unit not given here
metric-name: Affinity ELISA pH 6.0

[[record]]
binder = "LC-T096D (antibody, V domains shown) VH: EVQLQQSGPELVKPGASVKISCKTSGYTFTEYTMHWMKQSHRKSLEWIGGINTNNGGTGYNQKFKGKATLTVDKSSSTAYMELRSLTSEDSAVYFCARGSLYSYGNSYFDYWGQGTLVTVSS VL: QIVLTQSPAIMSASPGEKVTITCSATSSVSYMHWFQQKPGTSPKLWIYGTSNLASGVPARFSGSGSGTSYSLTISRMEAEDAATYYCQQRSSYPFDFGQGTKVEIK"
result_value = 0.755


// field: Affinity ELISA pH 6.0; key: LC-Y031C (antibody, V domains shown) VH: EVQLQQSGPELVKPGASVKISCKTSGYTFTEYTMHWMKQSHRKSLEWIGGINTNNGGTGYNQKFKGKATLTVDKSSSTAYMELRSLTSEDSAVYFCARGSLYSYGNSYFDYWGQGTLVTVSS VL: QIVLTQSPAIMSASPGEKVTITCSATSSVSCMHWFQQKPGTSPKLWIYGTSNLASGVPARFSGSGSGTSYSLTISRMEAEDAATYYCQQRSSYPFTFGQGTKVEIK ; value = 1.34

The reported value for LC-R090H (antibody, V domains shown) VH: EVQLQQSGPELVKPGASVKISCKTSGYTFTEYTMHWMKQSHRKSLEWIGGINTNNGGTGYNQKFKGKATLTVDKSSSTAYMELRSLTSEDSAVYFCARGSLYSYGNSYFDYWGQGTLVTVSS VL: QIVLTQSPAIMSASPGEKVTITCSATSSVSYMHWFQQKPGTSPKLWIYGTSNLASGVPARFSGSGSGTSYSLTISRMEAEDAATYYCQQHSSYPFTFGQGTKVEIK in terms of Affinity ELISA pH 6.0 is 0.56

Record LC-S030D (antibody, V domains shown) VH: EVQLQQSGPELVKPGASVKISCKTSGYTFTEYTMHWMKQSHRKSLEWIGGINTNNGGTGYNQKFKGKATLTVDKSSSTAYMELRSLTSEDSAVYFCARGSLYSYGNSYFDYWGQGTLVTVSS VL: QIVLTQSPAIMSASPGEKVTITCSATSSVDYMHWFQQKPGTSPKLWIYGTSNLASGVPARFSGSGSGTSYSLTISRMEAEDAATYYCQQRSSYPFTFGQGTKVEIK , field Affinity ELISA pH 6.0: 0.733

According to the records, this binder LC-Q089E (antibody, V domains shown) VH: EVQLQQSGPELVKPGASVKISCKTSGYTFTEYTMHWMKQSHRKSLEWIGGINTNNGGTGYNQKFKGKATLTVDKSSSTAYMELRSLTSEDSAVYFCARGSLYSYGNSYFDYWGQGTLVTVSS VL: QIVLTQSPAIMSASPGEKVTITCSATSSVSYMHWFQQKPGTSPKLWIYGTSNLASGVPARFSGSGSGTSYSLTISRMEAEDAATYYCQERSSYPFTFGQGTKVEIK displays Affinity ELISA pH 6.0 of 0.438

According to the records, this binder LC-G049P (antibody, V domains shown) VH: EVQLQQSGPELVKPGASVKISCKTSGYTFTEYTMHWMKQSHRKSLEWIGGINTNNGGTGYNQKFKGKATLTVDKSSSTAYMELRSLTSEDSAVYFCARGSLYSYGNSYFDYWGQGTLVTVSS VL: QIVLTQSPAIMSASPGEKVTITCSATSSVSYMHWFQQKPGTSPKLWIYPTSNLASGVPARFSGSGSGTSYSLTISRMEAEDAATYYCQQRSSYPFTFGQGTKVEIK displays Affinity ELISA pH 6.0 of 0.66
